# System: RARb:RXRa (NR concentration 270 nM, RXRa partner concentration 90 nM)
# testDescription: PBM binding z-score (relative to random genomic background probes); higher = stronger binding; sequences stand for … in GC…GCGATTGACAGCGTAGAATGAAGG
property: PBM binding z-score
Answer with a bare number; do not write a unit.

{"columns": ["biopolymerSequence", "PBM binding z-score"],
 "data": [
  ["TCTGCTAGGTCAGCTGGTCAGCTAACGAGCTGCC", 3.64],
  ["ACAGACAGGTGATCAAGGTAACTCAGGCTATCAT", 0.165]
]}

Reported PBM binding z-score of AGTATGAGGTTACCAAAGATCAGGGAAACGCTTG : 2.19

###

# System: RARb:RXRa (NR concentration 270 nM, RXRa partner concentration 90 nM)
# testDescription: PBM binding z-score (relative to random genomic background probes); higher = stronger binding; sequences stand for … in GC…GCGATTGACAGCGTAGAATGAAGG
Listing: PBM binding z-score of selected sequences

The examples below pair each entry with its known result.
{"columns": ["biopolymerSequence", "PBM binding z-score"],
 "data": [
  ["ACTAGCAGGCCAAGGCTCACTCAAGATTAGTCCG", 0.257],
  ["TCATATAGGTAAAGGTGAAAGGCGAACGATATGA", 1.99],
  ["ACTATTAGTTGAGTTAGGGCAACCGATACGACGC", 0.797]
]}

Reported PBM binding z-score of CGAACTAGGTCCGAACAGGACAGTGAAGGATGAT : -0.345

Reported PBM binding z-score of AATACAGGGTCATTGTAGGCCAGAGTACGCACAG : 4.19

Reported PBM binding z-score of ATCTCTAGGTAAGACTCCGTTCAGTGAAGAACGC : 0.229

Reported PBM binding z-score of ACAGACAGGTGATGAAGGTAACTCATGCTATCAT : 0.221

Reported PBM binding z-score of TAGCCTAGGTCATGGGCCAGTATCCCACGCGAAC : 3.74

###

# Test system: PPARg homodimer (NR concentration 180 nM)
# testDescription: PBM binding z-score (relative to random genomic background probes); higher = stronger binding; sequences stand for … in GC…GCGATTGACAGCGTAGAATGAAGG
Listing: PBM binding z-score of selected sequences
Answer with a bare number; do not write a unit.

{"columns": ["biopolymerSequence", "targetUnderTest", "observedValue"],
 "data": [
  ["ACTATTAGTTGAGACGTGGGCAACCGATAGGTTG", "PPARg homodimer (NR concentration 180 nM)", -0.426],
  ["GCAGACAGGTGAGACGCAGGTAACTCAGGGTGGC", "PPARg homodimer (NR concentration 180 nM)", -0.513]
]}

// moving on: another record for PBM binding z-score
Reported PBM binding z-score of CCTCGGAGGACGACAGGAGGTCAGAGCTGCCAGA : 1.19

###

# Test system: PPARg:RXRa DBDmut IVT, anti-RXR (DBD mutation: RXRa K156A/R161A, NR concentration 270 nM, RXRa partner concentration 90 nM)
# testDescription: PBM binding z-score (relative to random genomic background probes); higher = stronger binding; sequences stand for … in GC…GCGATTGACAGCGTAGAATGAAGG
property: PBM binding z-score

{"columns": ["biopolymerSequence", "observedValue"],
 "data": [
  ["AGTCAAAGTTCATCTAGGTAACCTAAGATATGCT", 0.989],
  ["TTACCAAGGTGAAGGTCGTAGATCCCTCTGTAGA", 1.02]
]}

// moving on: another record for PBM binding z-score
Reported PBM binding z-score of CTCAAAAGGTCGTGCTCAGGTGAGTATACCAAAC : 1.02

###

# Test system: PPARa:RXRa (NR concentration 270 nM, RXRa partner concentration 90 nM)
# testDescription: PBM binding z-score (relative to random genomic background probes); higher = stronger binding; sequences stand for … in GC…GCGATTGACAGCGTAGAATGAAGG
Listing: PBM binding z-score of selected sequences
Answer with a bare number; do not write a unit.

The examples below pair each entry with its known result.
{"columns": ["biopolymerSequence", "targetUnderTest", "property", "observedValue"],
 "data": [
  ["TCTCGGAGGACACGAATGTCAGAGCTTTCCAGAG", "PPARa:RXRa (NR concentration 270 nM, RXRa partner concentration 90 nM)", "PBM binding z-score", 0.22],
  ["GGAACGATGGCATTCGAGTTGATAGCATGGCGAT", "PPARa:RXRa (NR concentration 270 nM, RXRa partner concentration 90 nM)", "PBM binding z-score", -0.689],
  ["TAGCCTAGGTCATTCAGGGGACAGTATAGAAAGC", "PPARa:RXRa (NR concentration 270 nM, RXRa partner concentration 90 nM)", "PBM binding z-score", 3.96],
  ["AGTCAAGGTTCATCTAGGTAACGTAAGATATGCT", "PPARa:RXRa (NR concentration 270 nM, RXRa partner concentration 90 nM)", "PBM binding z-score", 3.64],
  ["GCTCGGAGGACAAGGTCAGAGATTTGTCCGTAGA", "PPARa:RXRa (NR concentration 270 nM, RXRa partner concentration 90 nM)", "PBM binding z-score", 2.13]
]}

Reported PBM binding z-score of CTACCAAGGTGAACAAGGTCGTCGATTACTATTC : 2.77

Reported PBM binding z-score of CGTCCAAGGTCATAGGAGGTCAGTGAGGACAGAT : 5.86

Reported PBM binding z-score of GCTGCTAGGTCAGATTGGTCAGCTAACGGGTACG : 1.68

Reported PBM binding z-score of GGAACGAGGGCAAGTTAATAGCAGAGTTTGATGG : 1.53

###

# Test system: RARa homodimer (NR concentration 270 nM)
# testDescription: PBM binding z-score (relative to random genomic background probes); higher = stronger binding; sequences stand for … in GC…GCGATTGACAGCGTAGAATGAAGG
property: PBM binding z-score

The examples below pair each entry with its known result.
{"columns": ["biopolymerSequence", "targetUnderTest", "observedValue"],
 "data": [
  ["TCTTGTAGATCAAGCAGGTTAAGAACGCCTGAGT", "RARa homodimer (NR concentration 270 nM)", -0.305],
  ["AGAACGAGGGCAATGAGTTGATGGCACGGGTGGC", "RARa homodimer (NR concentration 270 nM)", -0.254]
]}

// moving on: another record for PBM binding z-score
Reported PBM binding z-score of CGTCAAAGTTCAACTAAGGTAACGCAAAGCACGC : 1.83

###

# Test system: THRa:RXRa (NR concentration 90 nM, RXRa partner concentration 90 nM)
# testDescription: PBM binding z-score (relative to random genomic background probes); higher = stronger binding; sequences stand for … in GC…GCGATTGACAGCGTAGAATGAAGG
Listing: PBM binding z-score of selected sequences

The examples below pair each entry with its known result.
{"columns": ["biopolymerSequence", "targetUnderTest", "PBM binding z-score"],
 "data": [
  ["ATATGTAGGTTAATGGTCATTCAGGTTGGTTCGC", "THRa:RXRa (NR concentration 90 nM, RXRa partner concentration 90 nM)", 0.905],
  ["CCGACTGGGGCATAAGGATACCATAAGCCAGCCC", "THRa:RXRa (NR concentration 90 nM, RXRa partner concentration 90 nM)", 0.92],
  ["TCGTGTAGATCAACAGGAGGTTAAGAAAGATCGA", "THRa:RXRa (NR concentration 90 nM, RXRa partner concentration 90 nM)", 0.819]
]}

Reported PBM binding z-score of ACTAGCAGGCCAAGTTTGGGTCAATCAAACAAAG : 2.25

Reported PBM binding z-score of ATACCAAGTTGATCGTGAGGTCGTTGATACTAAC : 2.75

###

# Tested on: RXRa homodimer (NR concentration 180 nM)
# testDescription: PBM binding z-score (relative to random genomic background probes); higher = stronger binding; sequences stand for … in GC…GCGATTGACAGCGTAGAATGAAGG
Listing: PBM binding z-score of selected sequences
Answer with a bare number; do not write a unit.

The examples below pair each entry with its known result.
{"columns": ["biopolymerSequence", "PBM binding z-score"],
 "data": [
  ["CGTCAAAGATCAACTAAGGTAACGTAAAGCACGC", 0.921],
  ["TAGCCTAGGTCATTCAGGGGCCTGTATAGAAAGC", 2.48],
  ["CGAAGGAGGGCATGAGTTGATAGCAAATGCCGAT", 0.619],
  ["TGAATGAGGTTAAAAATCAGGGAACGTGGCGTCG", 2.24],
  ["GCGACTGGTGCATCAGCAGGTTACCATAACTTAA", -0.12]
]}

Reported PBM binding z-score of ATCTCTAGGTAACAAGTTTAGTGAAAGAGAGGAC : 0.165

Reported PBM binding z-score of ACTATTAGTTGAGACAAGGGCAACCGATAGGTTG : 0.407
